Measured protein stability index accompanies every entry in the list below.
B1: CSNK1G1 (parent)
chain: GSLPWQGLKADTLKERYQKIGDTK

Variants of: B1
assay_summary: protein stability index of a GFP-peptide fusion (GPS, HEK-293T) (PSI 1-6); higher = more stable;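 also: lentivirally expressed fusions sorted by FACS into six bins by GFP to DsRed ratio, PSI derived from sequencing read proportions per bin multiplied by bin number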
protocol_conditions: c terminus: a fixed tail appended
// no unit, no text: just the number

// worked examples, protein stability index included
mutant | protein stability index
K24Y | 2.63
A10D | 5.01
G21T | 3.83
G1I | 3.52
G21H | 4.15

input: Which protein stability index value belongs to D22S ?
output: 4.05
